- target.system: T1, BMP-12 (UniProt Q7Z4P5 322-450, limits assumed)
- T1 construct: also called BMP12/GDF7
- T1 sequence (looked up): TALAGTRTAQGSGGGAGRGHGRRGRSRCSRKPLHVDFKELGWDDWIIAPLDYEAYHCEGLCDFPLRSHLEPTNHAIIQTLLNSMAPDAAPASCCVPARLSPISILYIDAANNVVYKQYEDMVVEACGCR
- protocol.details: peptide resin, filter plate; load 2: 50 mM Acetic Acid, 0.1 M NaCl, pH 4.0
No end group written: not given here.
quantity: 4M Gnd, 50 mM NaAc pH 4 Strip Conc (mg/ml)

• Ac-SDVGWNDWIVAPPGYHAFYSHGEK [BMP2 N-trun 1S peptide 751] = 0.089
• Ac-VAPPGYHAFYSHGEK [BMP2 N-trunc_2 peptide 745] = 0.026

a: Ac-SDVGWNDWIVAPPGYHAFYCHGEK [BMP2 N-trun peptide 750]
b: Ac-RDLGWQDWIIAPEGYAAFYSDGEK [BMP5 peptide 748]
// which entry has the larger 4M Gnd, 50 mM NaAc pH 4 Strip Conc value, a or b ? Your choice should be expressed through its label.
b
(b: 0.229 mg/ml, a: 0.087 mg/ml)
